- Study System: T1, hIL-11Rα (Homo sapiens, UniProt Q14626)
- T1 sequence (Q14626 23-422): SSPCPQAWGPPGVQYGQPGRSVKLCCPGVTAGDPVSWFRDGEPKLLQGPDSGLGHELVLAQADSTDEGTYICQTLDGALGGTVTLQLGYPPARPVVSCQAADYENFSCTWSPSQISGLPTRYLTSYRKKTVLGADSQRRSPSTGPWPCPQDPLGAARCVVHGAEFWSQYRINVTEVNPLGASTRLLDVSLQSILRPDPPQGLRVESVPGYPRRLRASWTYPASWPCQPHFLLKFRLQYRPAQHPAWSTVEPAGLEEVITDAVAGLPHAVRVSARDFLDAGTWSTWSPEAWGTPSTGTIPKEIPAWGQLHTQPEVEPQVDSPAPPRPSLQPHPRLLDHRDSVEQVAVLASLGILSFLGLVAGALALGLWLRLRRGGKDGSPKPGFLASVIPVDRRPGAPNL
- Test Method Notes: Kinetic binding analysis by biolayer interferometry (protein G biosensors, Octet RED96e)
- Experimental: Association was carried out in the presence of a 2-fold dilution series of hIL-11Rα and was allowed to proceed for 120 seconds; dissociation was measured for 300 to 1200 seconds.
Quantity Kind: kd

[Q] Give the measured kd of mAb5: anti-IL-11Rα antibody, human IgG4 (S228P), kappa; VH SEQ ID NO: 201, VL SEQ ID NO: 202 (antibody, V domains shown, IgG4 S228P kappa constant regions; mAb5 VH Chain; mAb5 VL Chain) VH: EVQLLESGGGLVQPGGSLRLSCAASGFTFSWYSMTWVRQAPGKGLEWVSSIVPYGDLTQYADSVKGRFTISRDNSKNTLYLQMNSLRAEDTAVYYCAKGPGWGSFDLWGRGTLVTVSS VL: DIQMTQSPSSLSASVGDRVTITCQASQDINNYLNWYQQKPGKAPKLLIYDASNLQTGVPSRFSGSGSGTDFTFTISSLQPEDIATYYCQQHESQSPTFGPGTKVDIK .
[A] <1e-07 s⁻¹
